# subject.of.test: hNav1.7 (Homo sapiens)
# Sequence (Q15858 1-1977 isoform Q15858-3): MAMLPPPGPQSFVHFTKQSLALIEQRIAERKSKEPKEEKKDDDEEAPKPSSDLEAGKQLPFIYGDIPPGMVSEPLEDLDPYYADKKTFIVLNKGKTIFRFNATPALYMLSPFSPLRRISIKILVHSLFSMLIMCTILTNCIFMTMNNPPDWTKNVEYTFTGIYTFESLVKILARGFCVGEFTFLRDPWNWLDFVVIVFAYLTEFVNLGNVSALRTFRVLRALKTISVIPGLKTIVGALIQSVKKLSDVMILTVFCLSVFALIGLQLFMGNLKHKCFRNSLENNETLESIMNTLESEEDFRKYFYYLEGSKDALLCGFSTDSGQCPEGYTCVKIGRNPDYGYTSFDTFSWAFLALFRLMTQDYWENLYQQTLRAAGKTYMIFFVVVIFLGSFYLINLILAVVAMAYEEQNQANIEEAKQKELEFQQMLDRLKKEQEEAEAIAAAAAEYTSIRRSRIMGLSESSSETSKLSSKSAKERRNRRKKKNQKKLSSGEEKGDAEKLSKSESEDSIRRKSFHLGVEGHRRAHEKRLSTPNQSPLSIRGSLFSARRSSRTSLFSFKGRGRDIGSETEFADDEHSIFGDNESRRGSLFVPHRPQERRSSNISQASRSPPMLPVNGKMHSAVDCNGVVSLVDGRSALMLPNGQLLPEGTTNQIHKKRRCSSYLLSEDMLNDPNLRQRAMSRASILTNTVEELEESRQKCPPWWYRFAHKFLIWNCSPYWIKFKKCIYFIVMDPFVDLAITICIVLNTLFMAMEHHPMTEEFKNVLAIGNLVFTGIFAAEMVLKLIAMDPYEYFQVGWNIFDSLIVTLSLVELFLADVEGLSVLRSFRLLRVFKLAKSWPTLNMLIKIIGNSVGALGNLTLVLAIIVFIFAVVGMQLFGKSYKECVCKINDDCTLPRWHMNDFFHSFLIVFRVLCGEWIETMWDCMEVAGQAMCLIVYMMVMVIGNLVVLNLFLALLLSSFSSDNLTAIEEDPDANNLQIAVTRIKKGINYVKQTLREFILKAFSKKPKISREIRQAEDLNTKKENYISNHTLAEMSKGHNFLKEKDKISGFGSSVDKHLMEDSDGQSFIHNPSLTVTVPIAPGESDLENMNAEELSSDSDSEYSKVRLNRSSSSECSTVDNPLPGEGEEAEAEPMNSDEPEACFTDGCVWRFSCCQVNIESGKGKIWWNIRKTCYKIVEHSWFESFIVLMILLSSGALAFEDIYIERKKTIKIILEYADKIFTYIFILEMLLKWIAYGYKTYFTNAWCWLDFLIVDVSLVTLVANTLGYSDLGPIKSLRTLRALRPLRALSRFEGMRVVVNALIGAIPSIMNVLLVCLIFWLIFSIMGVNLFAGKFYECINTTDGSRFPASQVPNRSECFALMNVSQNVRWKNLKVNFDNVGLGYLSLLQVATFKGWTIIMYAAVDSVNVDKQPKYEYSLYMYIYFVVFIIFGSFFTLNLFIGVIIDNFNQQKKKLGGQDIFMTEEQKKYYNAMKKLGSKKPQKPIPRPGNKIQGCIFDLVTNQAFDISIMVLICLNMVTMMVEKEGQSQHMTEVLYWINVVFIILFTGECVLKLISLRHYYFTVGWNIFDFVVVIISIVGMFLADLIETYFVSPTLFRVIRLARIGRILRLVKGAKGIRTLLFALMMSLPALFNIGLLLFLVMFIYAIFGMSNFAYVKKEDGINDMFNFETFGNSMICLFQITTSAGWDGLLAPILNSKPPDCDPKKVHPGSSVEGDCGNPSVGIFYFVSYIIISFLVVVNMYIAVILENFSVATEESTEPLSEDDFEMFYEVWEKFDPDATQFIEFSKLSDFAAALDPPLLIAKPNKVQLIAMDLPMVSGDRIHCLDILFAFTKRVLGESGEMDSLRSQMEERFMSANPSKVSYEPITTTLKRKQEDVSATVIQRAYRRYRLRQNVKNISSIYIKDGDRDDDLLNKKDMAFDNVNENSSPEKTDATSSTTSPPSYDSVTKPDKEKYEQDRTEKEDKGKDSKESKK
# protocol.notes: cell-based
pKi: −log10 of the molar value.
readout.label: pKi

[
  {
    "chemical.smiles": "NC(=O)CN1Cc2cc(-c3cccc([C@H](O)CO)n3)ccc2Oc2ccc(C(F)(F)F)cc21",
    "readout.label": "pKi",
    "observed.measurement": 5.74
  }
]

---

# subject.of.test: human Nav1.7 (Homo sapiens, UniProt Q15858)
# Sequence (Q15858 1-1977 isoform Q15858-3): as above
# protocol.notes: FLIPR or FLIPR TETRA sodium dye assay for sodium channel blocking activity
# Format: cell-based
# conditions: read-out: Nav1.7 Activity (μM) FLIPR assay IC50
With a cut-off of 2 µM, any IC50 strictly below it is called Fulfilled; any IC50 meeting it or above is called Not fulfilled.

[
  {
    "compound": "OC[C@@H](O)c1cccc(-c2ccc3c(c2)CNc2cc(C(F)(F)F)ccc2O3)n1 [Compound 43]",
    "assigned.category": "Not fulfilled"
  },
  {
    "compound": "CN1Cc2cc(-c3cccc([C@H](O)[C@@H](O)C(N)=O)n3)ccc2Oc2ccc(C(F)(F)F)cc21 [Compound 48]",
    "assigned.category": "Fulfilled"
  },
  {
    "compound": "CN1Cc2cc(C(F)(F)F)ccc2Oc2ccc(-c3cccc([C@H](O)CO)n3)cc21 [Compound 45]",
    "assigned.category": "Fulfilled"
  },
  {
    "compound": "CC(=O)N1c2ccc(Cl)cc2CCc2cc(-c3cccc(C(N)=O)n3)ccc21 [Compound 42]",
    "assigned.category": "Not fulfilled"
  },
  {
    "compound": "CN1c2ccc(Cl)cc2CCc2cc(-c3cccc(C(N)=O)n3)ccc21 [Compound 39]",
    "assigned.category": "Fulfilled"
  },
  {
    "compound": "CN1c2ccc(-c3cccc([C@H](O)CO)n3)cc2CCc2cc(C(F)(F)F)ccc21 [Compound 46]",
    "assigned.category": "Fulfilled"
  }
]

---

Entries and their measured IC50 follow.
# subject.of.test: UniProt Q15858
# protocol.notes: FLIPR or FLIPR TETRA sodium dye assay for sodium channel blocking activity
# Assay type: cell-based
# conditions: recombinant HEK293 cells expressing human Nav1.7 alpha subunit; veratridine and scorpion venom as agonists; read-out: Nav1.7 Activity (μM) FLIPR assay IC50

[
  {
    "compound": "C[C@H](Nc1cc(C(N)=O)nc(-c2ccc3c(c2)CN(C)c2cc(C(F)(F)F)ccc2O3)n1)C(N)=O [Compound 47]",
    "IC50 / µM": 4.79
  },
  {
    "compound": "CN1Cc2cc(-c3cccc([C@H](O)CO)n3)ccc2Oc2ccc(C(F)(F)F)cc21 [Compound 44]",
    "IC50 / µM": 0.373
  }
]
